These data points were gathered from patent US10696707B2.

System: C. albicans ATCC90028
PROTOCOL_NOTES: Antifungal activity test, MIC by broth microdilution (CLSI M27-A3)
Format: cell-based
ASSAY_CONTEXT: C. albicans ATCC90028; broth microdilution, 35° C., 24-48 hours, 100% inhibition
MEASURED_ATTRIBUTE: MIC (µg/mL)
Reply with just the number (in µg/mL).

Ask | Quick one: give measured MIC for `C[C@@H]1[C@H](O)[C@@H](C)/C=C/C=C/C=C/C=C/C=C/C=C/C=C/[C@H](O[C@@H]2O[C@H](C)[C@@H](O)[C@H](N)[C@@H]2O)C[C@@H]2O[C@](O)(C[C@@H](O)C[C@@H](O)[C@H](O)CC[C@@H](O)C[C@@H](O)CC(=O)O[C@H]1C)C[C@H](O)[C@H]2NC(=O)NC[C@@H](O)CO`
Reply | 0.25

Ask | Quick one: give measured MIC for `C[C@@H]1[C@H](O)[C@@H](C)/C=C/C=C/C=C/C=C/C=C/C=C/C=C/[C@H](O[C@@H]2O[C@H](C)[C@@H](O)[C@H](N)[C@@H]2O)C[C@@H]2O[C@](O)(C[C@@H](O)C[C@@H](O)[C@H](O)CC[C@@H](O)C[C@@H](O)CC(=O)O[C@H]1C)C[C@H](O)[C@H]2NC(=O)N1CC(O)C1`
Reply | 0.25

Ask | Quick one: give measured MIC for `C[C@@H]1[C@H](O)[C@@H](C)/C=C/C=C/C=C/C=C/C=C/C=C/C=C/[C@H](O[C@@H]2O[C@H](C)[C@@H](O)[C@H](N)[C@@H]2O)C[C@@H]2O[C@](O)(C[C@@H](O)C[C@@H](O)[C@H](O)CC[C@@H](O)C[C@@H](O)CC(=O)O[C@H]1C)C[C@H](O)[C@H]2NC(=O)NC[C@H](O)CC(=O)O`
Reply | 0.5

Ask | Quick one: give measured MIC for `C[C@@H]1[C@H](O)[C@@H](C)/C=C/C=C/C=C/C=C/C=C/C=C/C=C/[C@H](O[C@@H]2O[C@H](C)[C@@H](O)[C@H](N)[C@@H]2O)C[C@@H]2O[C@](O)(C[C@@H](O)C[C@@H](O)[C@H](O)CC[C@@H](O)C[C@@H](O)CC(=O)O[C@H]1C)C[C@H](O)[C@H]2NC(=O)N(O)CC(=O)O`
Reply | 0.5

Ask | Quick one: give measured MIC for `C[C@@H]1[C@H](O)[C@@H](C)/C=C/C=C/C=C/C=C/C=C/C=C/C=C/[C@H](O[C@@H]2O[C@H](C)[C@@H](O)[C@H](N)[C@@H]2O)C[C@@H]2O[C@](O)(C[C@@H](O)C[C@@H](O)[C@H](O)CC[C@@H](O)C[C@@H](O)CC(=O)O[C@H]1C)C[C@H](O)[C@H]2NC(=O)NNC=O`
Reply | 0.25

Ask | Quick one: give measured MIC for `C[C@@H]1[C@H](O)[C@@H](C)/C=C/C=C/C=C/C=C/C=C/C=C/C=C/[C@H](O[C@@H]2O[C@H](C)[C@@H](O)[C@H](N)[C@@H]2O)C[C@@H]2O[C@](O)(C[C@@H](O)C[C@@H](O)[C@H](O)CC[C@@H](O)C[C@@H](O)CC(=O)O[C@H]1C)C[C@H](O)[C@H]2NC(=O)NC[C@@H](O)C(=O)O`
Reply | 0.5

Ask | Quick one: give measured MIC for `C[C@@H]1[C@H](O)[C@@H](C)/C=C/C=C/C=C/C=C/C=C/C=C/C=C/[C@H](O[C@@H]2O[C@H](C)[C@@H](O)[C@H](N)[C@@H]2O)C[C@@H]2O[C@](O)(C[C@@H](O)C[C@@H](O)[C@H](O)CC[C@@H](O)C[C@@H](O)CC(=O)O[C@H]1C)C[C@H](O)[C@H]2NC(=O)NCC1CN(C)C1`
Reply | 0.25

Ask | Quick one: give measured MIC for `C[C@@H]1[C@H](O)[C@@H](C)/C=C/C=C/C=C/C=C/C=C/C=C/C=C/[C@H](O[C@@H]2O[C@H](C)[C@@H](O)[C@H](N)[C@@H]2O)C[C@@H]2O[C@](O)(C[C@@H](O)C[C@@H](O)[C@H](O)CC[C@@H](O)C[C@@H](O)CC(=O)O[C@H]1C)C[C@H](O)[C@H]2NC(=O)NC[C@H](N)CO`
Reply | 0.25

Ask | Quick one: give measured MIC for `C[C@@H]1[C@H](O)[C@@H](C)/C=C/C=C/C=C/C=C/C=C/C=C/C=C/[C@H](O[C@@H]2O[C@H](C)[C@@H](O)[C@H](N)[C@@H]2O)C[C@@H]2O[C@](O)(C[C@@H](O)C[C@@H](O)[C@H](O)CC[C@@H](O)C[C@@H](O)CC(=O)O[C@H]1C)C[C@H](O)[C@H]2NC(=O)NNC(=O)c1cccnc1`
Reply | 0.25

Ask | Quick one: give measured MIC for `C[C@@H]1[C@H](O)[C@@H](C)/C=C/C=C/C=C/C=C/C=C/C=C/C=C/[C@H](O[C@@H]2O[C@H](C)[C@@H](O)[C@H](N)[C@@H]2O)C[C@@H]2O[C@](O)(C[C@@H](O)C[C@@H](O)[C@H](O)CC[C@@H](O)C[C@@H](O)CC(=O)O[C@H]1C)C[C@H](O)[C@H]2NC(=O)N(O)CCO`
Reply | 0.5

Ask | Quick one: give measured MIC for `C[C@@H]1[C@H](O)[C@@H](C)/C=C/C=C/C=C/C=C/C=C/C=C/C=C/[C@H](O[C@@H]2O[C@H](C)[C@@H](O)[C@H](N)[C@@H]2O)C[C@@H]2O[C@](O)(C[C@@H](O)C[C@@H](O)[C@H](O)CC[C@@H](O)C[C@@H](O)CC(=O)O[C@H]1C)C[C@H](O)[C@H]2NC(=O)NCC1CN(CCO)C1`
Reply | 0.25

Ask | Quick one: give measured MIC for C[C@@H]1[C@H](O)[C@@H](C)/C=C/C=C/C=C/C=C/C=C/C=C/C=C/[C@H](O[C@@H]2O[C@H](C)[C@@H](O)[C@H](N)[C@@H]2O)C[C@@H]2O[C@](O)(C[C@@H](O)C[C@@H](O)[C@H](O)CC[C@@H](O)C[C@@H](O)CC(=O)O[C@H]1C)C[C@H](O)[C@H]2NC(=O)N1CCC1C(=O)O (stereo partly shown)
Reply | 0.5

Ask | Quick one: give measured MIC for `C[C@@H]1[C@H](O)[C@@H](C)/C=C/C=C/C=C/C=C/C=C/C=C/C=C/[C@H](O[C@@H]2O[C@H](C)[C@@H](O)[C@H](N)[C@@H]2O)C[C@@H]2O[C@](O)(C[C@@H](O)C[C@@H](O)[C@H](O)CC[C@@H](O)C[C@@H](O)CC(=O)O[C@H]1C)C[C@H](O)[C@H]2NC(=O)N1CC(N(C)C)C1`
Reply | 0.25

---

Tested on: HepG2 cells
Type: cell-based
ASSAY_CONTEXT: human, 71 h
MEASURED_ATTRIBUTE: cytotoxicity (lowest cytotoxicity concentration) (µmol/L)
Reply with just the number (in µmol/L).

Ask | Quick one: give measured cytotoxicity (lowest cytotoxicity concentration) for C[C@@H]1[C@H](O)[C@@H](C)/C=C/C=C/C=C/C=C/C=C/C=C/C=C/[C@H](O[C@@H]2O[C@H](C)[C@@H](O)[C@H](N)[C@@H]2O)C[C@@H]2O[C@](O)(C[C@@H](O)C[C@@H](O)[C@H](O)CC[C@@H](O)C[C@@H](O)CC(=O)O[C@H]1C)C[C@H](O)[C@H]2NC(=O)NCCC(=O)O [AmBCU, reference compound]
Reply | 25.2

Ask | Quick one: give measured cytotoxicity (lowest cytotoxicity concentration) for C[C@@H]1[C@H](O)[C@@H](C)/C=C/C=C/C=C/C=C/C=C/C=C/C=C/[C@H](O[C@@H]2O[C@H](C)[C@@H](O)[C@H](N)[C@@H]2O)C[C@@H]2O[C@](O)(C[C@@H](O)C[C@@H](O)[C@H](O)CC[C@@H](O)C[C@@H](O)CC(=O)O[C@H]1C)C[C@H](O)[C@H]2NC(=O)NCCN [AmBAU, reference compound]
Reply | 51.0

Ask | Quick one: give measured cytotoxicity (lowest cytotoxicity concentration) for CNC(=O)N[C@H]1[C@@H]2C[C@@H](O[C@@H]3O[C@H](C)[C@@H](O)[C@H](N)[C@@H]3O)/C=C/C=C/C=C/C=C/C=C/C=C/C=C/[C@H](C)[C@@H](O)[C@@H](C)[C@H](C)OC(=O)C[C@H](O)C[C@H](O)CC[C@@H](O)[C@H](O)C[C@H](O)C[C@](O)(C[C@@H]1O)O2 [AmBMU, reference compound]
Reply | 12.5

---

Tested on: C. albicans ATCC90028
PROTOCOL_NOTES: Antifungal activity test, MIC by broth microdilution (CLSI M27-A3)
Type: cell-based
ASSAY_CONTEXT: C. albicans ATCC90028; broth microdilution, 35° C., 24-48 hours, 100% inhibition
MEASURED_ATTRIBUTE: MIC (µg/mL)
Reply with just the number (in µg/mL).

Ask | Quick one: give measured MIC for C[C@@H]1[C@H](O)[C@@H](C)/C=C/C=C/C=C/C=C/C=C/C=C/C=C/[C@H](O[C@@H]2O[C@H](C)[C@@H](O)[C@H](N)[C@@H]2O)C[C@@H]2O[C@](O)(C[C@@H](O)C[C@@H](O)[C@H](O)CC[C@@H](O)C[C@@H](O)CC(=O)O[C@H]1C)C[C@H](O)[C@H]2NC(=O)NCC(=O)NCC#N [I-157]
Reply | 0.5

Ask | Quick one: give measured MIC for C[C@@H]1[C@H](O)[C@@H](C)/C=C/C=C/C=C/C=C/C=C/C=C/C=C/[C@H](O[C@@H]2O[C@H](C)[C@@H](O)[C@H](N)[C@@H]2O)C[C@@H]2O[C@](O)(C[C@@H](O)C[C@@H](O)[C@H](O)CC[C@@H](O)C[C@@H](O)CC(=O)O[C@H]1C)C[C@H](O)[C@H]2NC(=O)N(O)C[C@H](O)CO [I-275]
Reply | 0.5
